Tested target: T1, human 5T4 (trophoblast glycoprotein), endogenous on the cell surface (human, UniProt Q13641 32-420)
T1 construct: also called TPBG; 5T4 oncofetal antigen
T1 sequence: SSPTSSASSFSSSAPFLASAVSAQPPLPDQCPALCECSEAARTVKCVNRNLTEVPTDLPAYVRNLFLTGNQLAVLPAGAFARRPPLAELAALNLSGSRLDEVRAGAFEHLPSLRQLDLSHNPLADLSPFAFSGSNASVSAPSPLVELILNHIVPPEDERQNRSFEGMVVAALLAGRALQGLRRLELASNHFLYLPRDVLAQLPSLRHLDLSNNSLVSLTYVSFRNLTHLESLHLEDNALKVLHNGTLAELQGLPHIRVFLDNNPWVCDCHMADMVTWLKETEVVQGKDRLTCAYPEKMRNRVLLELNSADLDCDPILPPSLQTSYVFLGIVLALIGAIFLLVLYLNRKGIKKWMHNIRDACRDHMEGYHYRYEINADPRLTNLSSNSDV
Protocol notes: flow cytometry (FL4H median), sdAb-Fc titrated on 5T4-positive T47D cells
Property name: binding result

hz14B5v3 sdAb-Fc (Fc fusion, Humanized variant of 14B5, linked to a human Fc; not shown: human Fc) EVQLVESGGGEVQPGGSLRLSCAASERPFGTYAMGWFRQAPGKERDLVAAVSRNGGASQYAESVKGRFTISRDNAKNTMYLQMSSLRAEDTAVYYCAARSAAYSRSSEVYTGKDEYYYWGQGTLVTVKP: binds
hz14B5v4 sdAb-Fc (Fc fusion, Humanized variant of 14B5, linked to a human Fc; not shown: human Fc) EVQLVESGGGEVQPGGSLRLSCAASERPFGTYAMGWFRQAPGKERDLVAAVSRNGGASQYAESVKGRFTISRDNAKNTVYLQMSSLRAEDTAVYYCAARSAAYSRSSEVYTGKDEYYYWGQGTLVTVKP: binds

Source listed as patent US20210340273A1.
